- System: SN12C renal
- assay notes: NCI tumour cell line growth inhibition, 48 h
observed property: TGI (µM)
The reply should contain only the number, in µM.

Req: Fetch value of TGI on SN12C renal for Cc1ccc2[nH]c3c(c2c1)CCC/C3=N/N=C(N)N .
Resp: 3.05

Req: Send back SN12C renal TGI of O=C(O)c1c[nH]c2c(OCc3ccccc3)c3ccccc3c(O)c2c1=O only.
Resp: 23.3

Req: Return reported TGI for target or system SN12C renal, item C=C(C)[C@@H]1CC[C@]2(C(=O)O)CC[C@]3(C)[C@H](CC[C@@H]4[C@@]5(C)C/C(=C/c6ccc(OC)cc6)C(=O)C(C)(C)[C@@H]5CC[C@]43C)[C@@H]12 .
Resp: 5.9

###

- Tested on: NCI-H23 lung
- assay notes: NCI tumour cell line growth inhibition, 48 h
observed property: TGI

Req: Provide TGI, tested on NCI-H23 lung, for COc1ccc(-c2nn(-c3cccc(NC(=O)c4cccc(C(F)(F)F)c4)c3)cc2-c2ccncc2)cc1Cl .
Resp: 92.8 µM

Req: Print NCI-H23 lung TGI for CCCC(=O)Nc1ccc2c(c1)CN1C(=O)c3ccccc3C1=N2 .
Resp: > 100 µM

Req: Give TGI; test system NCI-H23 lung; compound CC(=O)OC[C@@]1(C)[C@@H]2[C@@H]3[C@@]4(CO[C@]3(C)C(=O)[C@@]3(O)C[C@H](C)[C@H](OC(C)=O)[C@@H]3[C@H]4OC(C)=O)[C@H](OC(=O)c3ccccc3)C[C@@H]21
Resp: > 100 µM

Req: Give TGI for c1ccc2sc(C3(N4CCC5(CC4)OCCO5)CCCCC3)cc2c1 tested on NCI-H23 lung.
Resp: > 100 µM

Req: Please respond with reported TGI (system NCI-H23 lung) for CC(C(=O)O)/C(=C\c1ccc2c(c1)OCO2)C(=O)O (centres undefined) .
Resp: > 100 µM

Req: Fill in TGI for O=C(NCCNc1nccc(-c2c(-c3cccc(O)c3)nc3sccn23)n1)Nc1cccc(C(F)(F)F)c1 tested with NCI-H23 lung.
Resp: 32.5 µM

Req: Fill in: TGI on NCI-H23 lung, entry COc1cc2c(cc1OC)C1Cc3cc(OC)c(OC)cc3C(C2)O1
Resp: > 100 µM

Req: Report measured TGI on NCI-H23 lung; entry: Cc1nc2c(O)cc3c4c(n(Cc5ccccc5)c3c2nc1C)C(=O)CCC4
Resp: > 100 µM

Req: Look up and report TGI, with NCI-H23 lung as system, for CCC(c1ccc2cc(O)ccc2c1)C(C)(C)C(=O)O (centres undefined)
Resp: > 100 µM

###

- Tested on: OVCAR-8 ovarian
- assay notes: NCI tumour cell line growth inhibition, 48 h
So I've got a bunch of compounds here, and I need their TGI values.

Req: In one line, give reported TGI of the entry CS/C(=N\S(=O)(=O)c1cc(C)c(Cl)cc1Cl)NNc1cnc2ccccc2n1 .
Resp: > 100 µM

Req: Give the value of TGI reported for the following: CCOC(=O)N/N=C(\Cc1ccc([N+](=O)[O-])cc1)OCC
Resp: > 100 µM

Req: Provide TGI value for the following compound: OCCCc1cc(O)c2c(c1)C(CO)C(c1ccc(O)c(O)c1)O2 (stereo not drawn)
Resp: > 100 µM

Req: Give reported TGI value for Cc1nn(-c2ccccc2)c2nc3c(nc12)C1=NCCN1C(c1ccc(Cl)cc1)N3 (stereo not drawn)
Resp: 21 µM

Req: State its TGI for this compound: CC1=NC(C(C)C)C(=O)O1 (stereo not drawn)
Resp: > 100 µM

Req: Give the measured TGI for CC(C)(C)OC(=O)CC(NC(=O)OC(C)(C)C)C(=O)NC(C(=O)O)C(O)c1ccccc1 (stereo not drawn)
Resp: > 100 µM

Req: For the compound CCN(CC)CCCC(Cc1ccccc1)Nc1c2ccc(Cl)cc2nc2ccc(OC)cc12 (stereo not drawn) , give its reported TGI.
Resp: 5.26 µM

Req: Look up TGI of Clc1ccc(C2=C(c3ccccc3)C(c3ccc(Cl)cc3)N3C(=N[C@H]4CCCC[C@@H]43)N2)cc1 (stereo partly drawn) and report it.
Resp: 29.5 µM

Req: Give the value of TGI reported for the following: CC1OC(n2c3ccccc3c3c4c(c5c6ccccc6[nH]c5c32)C(=O)N(CCN2CCOCC2)C4=O)CC(O)C1O (stereo not drawn)
Resp: 16.5 µM

Req: Consider the compound COc1ccc2cc(Cn3cc[n+](Cc4ccc5ccccc5c4)c3)ccc2c1 . State its measured TGI.
Resp: 13.1 µM

Req: Give the value of TGI reported for the following: Nc1ncnc2c1ncn2C1C=CC(COS(N)(=O)=O)C1 (stereo not drawn)
Resp: > 100 µM

Req: Note down TGI recorded for CCn1c(-c2nonc2N)nc2cncc(C(=O)NCCNC)c21
Resp: > 25 µM

Req: Provide TGI value for the following compound: COc1cc2c(cc1OC)-c1c(oc3cc(OC4OC(CO)C(O)C(O)C4O)c(OC)cc3c1=O)C(O)O2 (stereo not drawn)
Resp: > 100 µM

###

- Test system: SNB-19 CNS
- assay notes: NCI tumour cell line growth inhibition, 48 h
For each of the compounds below, state its GI50.

Req: Quote GI50 reported for COc1nc(N)nc2c1ncn2[C@@H]1O[C@H](CO)[C@@H](O)[C@@H]1O please.
Resp: > 100 µM

Req: Indicate its recorded GI50; the compound in question is C=CC[C@@H]1/C=C(\C)C[C@H](C)C[C@H](OC)[C@H]2O[C@@](O)(C(=O)C(=O)N3CCCC[C@H]3C(=O)O[C@H](/C(C)=C/C3CC[C@@H](O)[C@H](OC)C3)[C@H](C)[C@@H](O)CC1=O)[C@H](C)C[C@@H]2OC (some centres undefined)
Resp: 15.6 µM

Req: State, in one line, measured GI50 of O=S(=O)(CCNCc1ccc(-c2ccc3ncnc(Nc4ccc(OCc5cccc(F)c5)c(Cl)c4)c3c2)o1)c1ccccc1
Resp: > 25 µM

Req: Indicate its recorded GI50; the compound in question is O=C(CN1C(=O)S/C(=C\C(Cl)=C\c2ccccc2)C1=O)NCCc1ccc(O)cc1
Resp: 2.54 µM

Req: Note down GI50 recorded for Cc1ccc(-c2nc(N)c(C#N)c3c2CCOc2c-3ccc3ccccc23)cc1
Resp: 2.08 µM

Req: Supply recorded GI50 for CCCC1=C(C(=O)OCC)C(c2ccccc2OC)C(C#N)=C(N)O1 (centres undefined) here.
Resp: > 100 µM

Req: # return recorded GI50 for input O=C(O)c1c[nH]c2c(OCc3ccccc3)c3ccccc3c(O)c2c1=O
Resp: 17.7 µM

Req: Answer with the recorded GI50 for the compound listed here: COc1ccc(OC)c(/C=C2\COc3ccc(O)c(O)c3C2=O)c1
Resp: 3.09 µM

Req: Item Cc1ccc(NC2=C(Cl)C(=O)N(Cc3ccccc3)C2=O)cc1Cl : provide GI50
Resp: 11.2 µM

###

- System: MDA-MB-231 breast
- assay notes: NCI tumour cell line growth inhibition, 48 h
observed property: GI50

Req: Item O=C(Nc1ccc(OCc2nnc(-c3ccccc3)o2)c(F)c1)Nc1ccc(Cl)c(C(F)(F)F)c1 : provide GI50
Resp: 2300 nM

Req: Supply reported GI50 belonging to this compound: Cc1ccc(-c2nc(N)c(C#N)c3c2CCOc2c-3ccc3ccccc23)cc1
Resp: 70 nM

Req: Give reported GI50 value for COc1cccc(Cn2c(-c3nonc3NC(C)=O)nc3ccccc32)c1
Resp: 3620 nM

Req: Tell me measured GI50 for COc1cc(-n2cnc(-c3ccc(Cl)cc3)c2)cc(OC)c1OC please.
Resp: 85700 nM

###

- Test system: MDA-MB-435
- assay notes: NCI tumour cell line growth inhibition, 48 h
Exercise: for every item that follows, state its recorded TGI.

Req: Specify TGI for COc1cccc(Cn2c(-c3nonc3NC(C)=O)nc3ccccc32)c1 and stop.
Resp: 5.48 µM

Req: Give TGI for CCN(CC)CCCC(Cc1ccccc1)Nc1c2ccc(Cl)cc2nc2ccc(OC)cc12 (stereo unspecified)
Resp: 2.89 µM

Req: Output measured TGI for this item: COc1cc2c(cc1OC)C1Cc3cc(OC)c(OC)cc3C(C2)O1
Resp: > 100 µM

Req: Dear colleague, please send me the reported TGI for CCC12CC(c3ccccc3)C(C(=O)N1)C(=O)N2 (stereo unspecified) when you can.
Resp: > 100 µM

Req: Identify the reported TGI for the following entry. N#C/C(C(=S)Nc1ccccc1)=C(/N)N1CCCC1
Resp: > 100 µM

Req: Please report TGI for the following molecule: NC(=O)CCC(CCC(N)=O)(CCC(N)=O)[N+](=O)[O-]
Resp: > 100 µM

###

Kindly state GI50 for each of the entries shown.
- System: DU-145 prostate
- assay notes: NCI tumour cell line growth inhibition, 48 h

Req: State recorded GI50 with DU-145 prostate, entry COc1cc(-n2cnc(-c3ccc(Cl)cc3)c2)cc(OC)c1OC , no comment.
Resp: > 100 µM

Req: Provide GI50, recorded with DU-145 prostate, of Cc1ccc(-c2nc(N)c(C#N)c3c2CCOc2c-3ccc3ccccc23)cc1
Resp: 2.04 µM

Req: Report its GI50 with DU-145 prostate as the test system: O=C(NCCNc1nccc(-c2c(-c3cccc(O)c3)nc3sccn23)n1)Nc1cccc(C(F)(F)F)c1
Resp: 5.37 µM

Req: Check DU-145 prostate data and give GI50 for COc1ccc(-c2nn(-c3cccc(NC(=O)c4cccc(C(F)(F)F)c4)c3)cc2-c2ccncc2)cc1Cl .
Resp: 4.36 µM

Req: Under DU-145 prostate, report GI50 for COC1=CC(c2ccc[nH]2)=N/C1=C\c1[nH]c(C)c(C(C)=O)c1C
Resp: 0.355 µM

Req: Give GI50 for this entry on DU-145 prostate: C=CC[C@@H]1/C=C(\C)C[C@H](C)C[C@H](OC)[C@H]2O[C@@](O)(C(=O)C(=O)N3CCCC[C@H]3C(=O)O[C@H](/C(C)=C/C3CC[C@@H](O)[C@H](OC)C3)[C@H](C)[C@@H](O)CC1=O)[C@H](C)C[C@@H]2OC (some centres not stated)
Resp: 16.1 µM

Req: Enter measured GI50, system DU-145 prostate, for the molecule shown: Cc1cc2cc3cc(C)c(N)cc3[n+](C)c2cc1N
Resp: 1.77 µM

Req: Fill: GI50 (DU-145 prostate) for this molecule Cc1nn(-c2ccccc2)c2nc3c(nc12)C1=NCCN1C(c1ccc(Cl)cc1)N3 (configuration not stated)
Resp: 5.9 µM

Req: Given COc1ccc(OC)c(/C=C2\COc3ccc(O)c(O)c3C2=O)c1 , report its GI50 on DU-145 prostate.
Resp: 2.27 µM

Req: Report measured GI50 on DU-145 prostate; entry: N#Cc1c(N)nc(NCc2ccccc2)c(C#N)c1-c1ccccc1Cl
Resp: 21.5 µM

Req: # assay system DU-145 prostate: give GI50 of O=C(NCCNc1nccc(-c2c(-c3ccc(F)cc3)nc3sccn23)n1)c1ccccc1
Resp: 12.7 µM

Req: Find the measured GI50 of O=C(Cc1ccccc1)NC(c1ccc(Cl)cc1)c1c(O)ccc2ccccc12 (configuration not stated) with DU-145 prostate as test system.
Resp: 4.68 µM

Req: Find the measured GI50 of O=C(Nc1ccc(OCc2nnc(-c3ccccc3)o2)c(F)c1)Nc1ccc(Cl)c(C(F)(F)F)c1 with DU-145 prostate as test system.
Resp: 1.8 µM

Req: Return reported GI50 for target or system DU-145 prostate, item O=C1CCC(N2Cc3c(C#CCCCNC(=O)c4cc5c(o4)C(=O)c4ccccc4C5=O)cccc3C2=O)C(=O)N1 (configuration not stated) .
Resp: 1.82 µM

Req: Give the observed GI50 of NC1=CC(=O)c2nc3ccccc3c3ccnc1c23 for DU-145 prostate.
Resp: 0.495 µM

Req: Given CCN(CC)CCCC(Cc1ccccc1)Nc1c2ccc(Cl)cc2nc2ccc(OC)cc12 (configuration not stated) , report its GI50 on DU-145 prostate.
Resp: 5 µM

Req: Look up and report GI50, with DU-145 prostate as system, for Cc1[nH]nc2ccc3nc(-c4ccc5[nH]ncc5c4)c4c(c3c12)CCCC4
Resp: 1.05 µM
